Assay text: Aqueous stability at pH 1.2/6.8
Format: physicochemical
Setup conditions: pH 6.8, 37 °C, 24 h
Property name: stability at pH 6.8 (% decomposed)

The following compounds have reported results that may help.
>>> value_reported("N=C(N)Nc1ccc(C(=O)Oc2cccc(C(=O)N[C@@H](CC(=O)O)C(=O)O)c2)cc1.O=C(O)C(F)(F)F [4b]")
8.6
>>> value_reported("N=C(N)Nc1ccc(C(=O)Oc2ccc3c(c2)OC[C@H]3CC(=O)N[C@@H](CC(=O)O)C(=O)O)cc1.O [(S)-5b]")
4.4
>>> value_reported("N=C(N)Nc1ccc(C(=O)Oc2cccc(CC(=O)N[C@@H](CC(=O)O)C(=O)O)c2)cc1.O=C(O)C(F)(F)F [4a]")
5.8

(P) N=C(N)Nc1ccc(C(=O)Oc2cccc(C3=NO[C@](CC(=O)O)(C(=O)O)C3)c2)cc1 [6b]
(Q) Cl.N=C(N)Nc1ccc(C(=O)Oc2ccc(CC(=O)N[C@@H](CC(=O)O)C(=O)O)cc2)cc1 [2a]
Hey, which is lower on measured stability at pH 6.8 (% decomposed), P or Q ? Please indicate the selected item by its label.
Q
(Q: 5.0 % decomposed, P: 7.3 % decomposed)

----------
Assay text: Plasma exposure of 2a in mice (oral and subcutaneous)
Assay type: in vivo
Setup conditions: male, mouse, oral, 60 mg/kg, read-out: AUC0-24h
Property name: AUC(0-t) at 24 h (ng·h/mL)
The response must be a number in ng·h/mL with no trailing unit.

I am curious: what AUC(0-t) at 24 h value has been reported for `Cl.N=C(N)Nc1ccc(C(=O)Oc2ccc(CC(=O)N[C@@H](CC(=O)O)C(=O)O)cc2)cc1` ?
9820

----------
System under test: human enteropeptidase (Homo sapiens, UniProt P98073)
Construct: purchased ITSI-Biosciences, LLC #REN-260
Sequence (P98073 whole entry): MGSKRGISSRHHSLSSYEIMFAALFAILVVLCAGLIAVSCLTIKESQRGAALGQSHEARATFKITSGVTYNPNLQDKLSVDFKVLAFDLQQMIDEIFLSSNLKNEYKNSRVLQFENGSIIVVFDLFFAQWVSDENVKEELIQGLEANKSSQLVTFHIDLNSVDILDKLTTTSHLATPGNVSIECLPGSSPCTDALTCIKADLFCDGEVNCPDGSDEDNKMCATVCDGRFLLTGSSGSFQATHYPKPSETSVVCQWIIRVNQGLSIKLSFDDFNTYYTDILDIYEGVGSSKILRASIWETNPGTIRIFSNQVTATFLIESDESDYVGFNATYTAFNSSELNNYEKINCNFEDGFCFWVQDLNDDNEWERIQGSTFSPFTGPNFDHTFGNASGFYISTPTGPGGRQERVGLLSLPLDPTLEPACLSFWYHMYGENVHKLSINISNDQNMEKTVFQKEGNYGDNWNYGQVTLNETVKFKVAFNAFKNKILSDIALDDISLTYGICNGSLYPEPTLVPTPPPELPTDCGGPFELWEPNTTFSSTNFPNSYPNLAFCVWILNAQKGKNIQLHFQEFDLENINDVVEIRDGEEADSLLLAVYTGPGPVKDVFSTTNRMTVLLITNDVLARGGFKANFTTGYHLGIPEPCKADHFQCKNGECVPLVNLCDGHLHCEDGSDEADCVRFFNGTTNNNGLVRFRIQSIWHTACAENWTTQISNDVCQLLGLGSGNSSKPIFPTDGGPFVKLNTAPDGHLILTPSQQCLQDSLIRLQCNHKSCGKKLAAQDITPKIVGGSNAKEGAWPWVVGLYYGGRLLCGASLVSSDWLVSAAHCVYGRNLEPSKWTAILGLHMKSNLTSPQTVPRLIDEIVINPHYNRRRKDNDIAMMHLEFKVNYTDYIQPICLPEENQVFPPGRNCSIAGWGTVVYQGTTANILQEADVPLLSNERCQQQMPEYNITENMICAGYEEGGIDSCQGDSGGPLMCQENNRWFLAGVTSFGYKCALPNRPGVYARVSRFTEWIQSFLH
Assay text: Human enteropeptidase enzyme assay
Format: biochemical
Setup conditions: 120 min incubation of enzyme, substrate and compound at room temperature; 95% confidence intervals in parentheses; read-out: Human enteropeptidase IC50(app)
Property name: IC50 (nM)

>>> value_reported("N=C(N)Nc1ccc(C(=O)Oc2cccc(C3=NO[C@](CC(=O)O)(C(=O)O)C3)c2)cc1")
1.2
>>> value_reported("Cc1cc(C(=O)Oc2ccc(CC(=O)N[C@@H](CC(=O)O)C(=O)O)cc2)ccc1NC(=N)N")
680

(1) N=C(N)Nc1ccc(C(=O)Oc2ccc3c(c2)OC(CC(=O)N[C@@H](CC(=O)O)C(=O)O)C3)cc1 (stereo partly shown)
(2) N=C(N)Nc1ccc(C(=O)Oc2ccc(CC(=O)N[C@@H](CC(=O)O)C(=O)O)cc2)c(Cl)c1
Hey, which is lower on measured IC50, 1 or 2 ? Please indicate the selected item by its label.
2
(2: 5.6 nM, 1: 14 nM)

----------
Assay text: PAMPA (parallel artificial membrane permeability assay)
Format: in vitro ADME
Setup conditions: PAMPA, pH 7.4; read-out: PAMPA at pH 7.4
Form field: Papp (one value per entry).
The response must be a number in ×10⁻⁶ cm/s with no trailing unit.

>>> value_reported("Cl.N=C(N)Nc1ccc(C(=O)Oc2ccc(CC(=O)N[C@@H](CC(=O)O)C(=O)O)cc2)cc1")
0.2

Okay, now this compound:
I am curious: what Papp value has been reported for `Cc1cc(OC(=O)c2ccc(NC(=N)N)cc2)no1.Cl` ?
0.3

----------
Assay text: Aqueous stability at pH 1.2/6.8
Type: physicochemical
Setup conditions: pH 1.2, 37 °C, 24 h
Property name: stability at pH 1.2 (% decomposed)

>>> value_reported("N=C(N)Nc1ccc(C(=O)Oc2cccc(C3=NO[C@](CC(=O)O)(C(=O)O)C3)c2)cc1")
1.1
>>> value_reported("N=C(N)Nc1ccc(C(=O)Oc2cccc(CC(=O)N[C@@H](CC(=O)O)C(=O)O)c2)cc1.O=C(O)C(F)(F)F")
2.8
>>> value_reported("N=C(N)Nc1ccc(C(=O)Oc2ccc3c(c2)OC[C@H]3CC(=O)N[C@@H](CC(=O)O)C(=O)O)cc1.O [(S)-5b]")
0.2

(P) Cl.N=C(N)Nc1ccc(C(=O)Oc2ccc(CC(=O)N[C@@H](CC(=O)O)C(=O)O)cc2)cc1
(Q) N=C(N)Nc1ccc(C(=O)Oc2cccc(C(=O)N[C@@H](CC(=O)O)C(=O)O)c2)cc1.O=C(O)C(F)(F)F
// max by stability at pH 1.2 (% decomposed) over [ P , Q ] Please indicate the selected item by its label.
Q

----------
System under test: human enteropeptidase (Homo sapiens, UniProt P98073)
Construct: purchased ITSI-Biosciences, LLC #REN-260
Assay text: Human enteropeptidase enzyme assay
Format: biochemical
Setup conditions: 6 min incubation of enzyme, substrate and compound at room temperature; 95% confidence intervals in parentheses; read-out: Human enteropeptidase IC50(initial)
Description: Human recombinant enteropeptidase (#REN-260, ITSI-Biosciences, LLC) was diluted with an assay buffer (50 mM tricine (pH 8.0), 0.01(w/v)% Tween 20, 10 mM CaCl2) to prepare a 24 mU/mL enzyme solution. […] The fluorescence intensity was measured at an excitation wavelength of 485 nm and a fluorescence wavelength of 535 nm using a fluorescence plate reader EnVision (PerkinElmer Inc.). […]
pIC50: −log10 of the molar value.
Property name: pIC50

The following molecules have reported results that may help.
>>> value_reported("N=C(N)Nc1ccc(C(=O)Oc2ccc(C(=O)N[C@@H](CC(=O)O)C(=O)O)cc2)cc1.O=C(O)C(F)(F)F")
7.19
>>> value_reported("N=C(N)Nc1ccc(C(=O)Oc2ccc3c(c2)OC[C@H]3CC(=O)N[C@@H](CC(=O)O)C(=O)O)cc1.O [(S)-5b]")
7.17

(A) Cl.N=C(N)Nc1ccc(C(=O)Oc2ccc(CC(=O)N[C@@H](CC(=O)O)C(=O)O)cc2)cc1
(B) N=C(N)Nc1ccc(C(=O)Oc2cccc(C3=NO[C@](CC(=O)O)(C(=O)O)C3)c2)cc1
// max by pIC50 over [ A , B ] Please indicate the selected item by its label.
B

All values here come from paper PMC9234964.
